Reference for the values: PubChem BioAssay (NCI)

Assay: NCI Yeast Anticancer Drug Screen. Data for the mlh1 strain (AID 171);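 further: 0% = growth of vehicle-treated control cultures of the same strain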
Conditions: S. cerevisiae mlh1 strain growth inhibition; at 33.0 µM; stronger effect = higher value
Method: Growth inhibition of yeast strains with defined genetic alterations is measured as a screen for potential anti-cancer activity. Selected strains with alterations in DNA damage repair or cell cycle control were exposed to compounds and growth inhibition was measured relative to vehicle treated controls. The strain used in this assay is mlh1
About 79,000 compounds went through this panel and 15% of them were active in at least one assay; those are over-represented in the sample as a whole.
quantity.measured: growth inhibition (%)
Numbers only here, please. The scale is %.

query: Name the recorded growth inhibition for `O=C(/C=C\c1ccc([N+](=O)[O-])o1)Nc1ccc(Cl)cc1` .
result: 93

query: Name the recorded growth inhibition for `CCCCC(=O)c1c(O)nc2sccn2c1=O` .
result: 97

query: Name the recorded growth inhibition for `N#C/C(=C/N1C(=O)/C(=C/c2ccc([N+](=O)[O-])cc2)SC1=S)c1nc2ccccc2s1` .
result: 37

query: Name the recorded growth inhibition for Cc1ccc(S(=O)(=O)Nc2ccc3c(c2)C(O)c2ccccc2-3)cc1 (stereo unspecified) .
result: 80

query: Name the recorded growth inhibition for `O=C1C=CC(=O)N1c1ccc(I)cc1` .
result: 100

query: Name the recorded growth inhibition for `NC(=O)N1c2ccccc2C=Cc2ccccc21` .
result: -62
